# Test system: NCI-H322M lung
# assay_explanation: NCI-60 one-dose screen, 48 h (100 = growth as untreated, 0 = no growth, -100 = all killed)
# reported_conditions: 10 µM unless noted
About 83,000 compounds went through this panel and 20% of them were active in at least one assay; those are over-represented in the sample as a whole.
Mark Yes only when growth stays strictly below 50%. Values equal to the cut-off are No.

molecule	label_class
CSc1nc(-c2ccc(F)cc2)c(C#N)c(N2CCOCC2)n1	No
O=[N+]([O-])c1ccc(N=Nc2c(O)c(N=Nc3cc([N+](=O)[O-])cc([N+](=O)[O-])c3O)cc(N=Nc3cc(S(=O)(=O)O)cc4cc(S(=O)(=O)O)cc(O)c34)c2O)cc1	No

(Q) Take the molecule CC(C)(C#N)c1cc(F)cc(C(=O)Nc2cc(Nc3ncccc3-c3ncnc4nc[nH]c34)ccc2F)c1 and say whether its growth is less than 50%.
(A) No

(Q) Next entry: C=C1C(=O)O[C@H]2[C@H]1CC/C(COC(=O)CCCCCCCC(=O)OC/C1=C/CC[C@@]3(C)O[C@H]3[C@H]3OC(=O)C(=C)[C@@H]3CC1)=C\CC[C@@]1(C)O[C@@H]21
(A) No

(Q) Next entry: C#C[C@@]1(O)[C@@H](CO)O[C@@H](n2cc(F)c3c(N)ncnc32)[C@@H]1O
(A) Yes

(Q) Next entry: c1ccc2nc(N3CCOCC3)c(N3CCCCC3)nc2c1
(A) No

(Q) Next entry: O=C1Nc2ccc(Br)cc2/C1=N\N=C/c1cn(Cc2ccccc2)c2ccccc12
(A) No

(Q) Next entry: COc1ccc(/C=C(/C(=O)N2CCN(Cc3ccccc3)CC2)c2cc(OC)c(OC)c(OC)c2)cc1O
(A) No

(Q) Next entry: Cc1nc2sc(C(=O)Nc3cccc4ccccc34)c(N)c2cc1C(C)O (stereo not given)
(A) Yes

(Q) Next entry: C#C[C@@]1(O)[C@@H](CO)O[C@@H](n2cc(Cl)c3c(N)ncnc32)[C@@H]1O
(A) Yes

---

# Tested on: COLO 205 colon
# assay_explanation: NCI-60 one-dose screen, 48 h (100 = growth as untreated, 0 = no growth, -100 = all killed)
# reported_conditions: 10 µM unless noted
About 83,000 compounds went through this panel and 20% of them were active in at least one assay; those are over-represented in the sample as a whole. Activity calls are given as the source filed them. The calls were made as follows: active = growth percent below 10; inactive = the rest.
# growth values compiled below

Some solved cases for reference:
> print(dat)
                                   compound    reported.value
1  N#Cc1ccc(N2Cc3cc(Cl)ccc3OC3=C2C(=O)N(Cc2ccccc2)C3=O)cc1   -69.2% (active)
2  CN(C)c1ccc(-c2ccc3[nH]c(=O)nc(-c4ccc(F)cc4)c3c2)cn1  39.6% (inactive)
3  CC(=O)ON1CCCC(P(=O)(OCOC(=O)C(C)(C)C)OCOC(=O)C(C)(C)C)C1=O (stereo not given)    2.35% (active)
4  COc1ccc(-c2cc(-c3nnc(SCC(=O)Nc4ccc(/C(C)=N\O)cc4)n3-c3ccccc3)c3cc(OC)ccc3n2)cc1  93.6% (inactive)
5                  COCCOC(=O)COc1ccc(OC)cc1   115% (inactive)

(Q) Which growth value is on record for COc1ccc(C(=O)c2cc(F)c(F)c(OC)c2F)cc1OC(=O)CCl ?
(A) 108% (inactive)

---

# Test system: OVCAR-8 ovarian
# assay_explanation: NCI-60 one-dose screen, 48 h (100 = growth as untreated, 0 = no growth, -100 = all killed)
# reported_conditions: 10 µM unless noted
This is part of a sample that, as a whole, favours compounds with a hit. Of some 83,000 tested, about 20% had one in any assay.
measured_metric: growth (%)
Write the number in % without appending the unit.

Some solved cases for reference:
> print(dat)
                                   compound  measured.metric  reported.value
1  COC(=O)CCc1cc(O)c2c(c1)[C@@H](C(=O)OC)[C@H](c1ccc(O)c(O)c1)O2           growth            90.6
2  COC(=O)/C=C1\SC(=Nc2ccc(F)cc2)N(CCc2c[nH]c3ccccc23)C1=O           growth            87.5

(Q) Which growth value is on record for COc1ccc(OCC(=O)OC(C)C)cc1 ?
(A) 105

---

# System: OVCAR-5 ovarian
# assay_explanation: NCI-60 one-dose screen, 48 h (100 = growth as untreated, 0 = no growth, -100 = all killed)
# reported_conditions: 10 µM unless noted
About 83,000 compounds went through this panel and 20% of them were active in at least one assay; those are over-represented in the sample as a whole.
So basically: growth at 80% or higher? That is TRUE. Lower than 80%? That is FALSE.

> print(dat)
                                   compound   assayed.system  label.class
1    COc1cc(-c2nn(-c3ccc(Br)cc3)cc2CO)ccc1O  OVCAR-5 ovarian         TRUE
2  O=C1Nc2ccc(Cl)cc2/C1=N/c1nc(-c2ccc(F)cc2)cs1  OVCAR-5 ovarian        FALSE
3    CCC[S@@](=O)c1ccc2nc(NC(=O)OC)[nH]c2c1  OVCAR-5 ovarian         TRUE

(Q) Would you say CCCn1c2cc(OCc3cn(-c4ccc(Br)cc4)nn3)ccc2c2ccnc(C)c21 shows growth at minimum 80%?
(A) FALSE

(Q) Next entry: NC(=O)c1ccc2nc3c(n2c1)C(=O)C(=O)c1ccccc1-3
(A) FALSE

(Q) Next entry: O=C(CCc1nnc2sc(OCc3ccccc3)nn12)c1nc2ccc([N+](=O)[O-])cc2[nH]1
(A) TRUE

(Q) Next entry: CC(=O)Nc1nc2c(c(N)c1C#N)C(c1cccc(Cl)c1)C1=C(CCCC1=O)N2c1sc2c(c1C#N)CCCC2 (configuration not stated)
(A) TRUE

(Q) Next entry: COc1ccc(Nc2cc(NC(=O)CNc3cc(OC)c(Cl)c(OC)c3Cl)ncn2)cc1
(A) TRUE

---

# Tested on: HCC-2998 colon
# assay_explanation: NCI-60 one-dose screen, 48 h (100 = growth as untreated, 0 = no growth, -100 = all killed)
# reported_conditions: 10 µM unless noted
# Procedure: Growth inhibition of the HCC-2998 human tumor cell line is measured as a screen for anti-cancer activity. Cells are grown in 96 well plates and exposed to the test compound for 48 hours. Compounds are tested at a single concentration, which is 10^-5 M for most compounds. The reported endpoint is percent growth (GI% or GIPRCNT), where numbers from 0 - 100% represent growth inhibition, and numbers from -100% - 0 represent cell death. For example, a value of 40 represents 60% growth inhibition. […]
The panel holds about 83,000 compounds, 20% with a hit somewhere; the sample as a whole holds those more often.
Mark class 1 only when growth stays strictly below 90%. Values equal to the cut-off are class 0.

For orientation, consider the following solved cases.
> print(dat)
                                smiles.data  label.class
1  CCCCc1ccc(N=Nc2ccc(OCC[N+](C)(C)C)cc2)cc1      class 1
2  O=C(O)c1cn(C2CC2)c2cc(N3CCN(Cc4nnc(Nc5ccccc5)o4)CC3)c(F)cc2c1=O      class 0
3  COc1cc(NC(=O)Nc2cnc(Nc3ccc(N4CCOCC4)cc3)nc2Oc2ccc(F)cc2)cc(OC)c1      class 0
4  Cc1cc(C)cc(Nc2nccc(-c3c(-c4ccc(F)cc4)ncn3C3CCNCC3)n2)c1      class 1
5  COc1ccc(-c2nnc(N3CCN(C(=O)CN4CCN(c5ccc(OC)cc5)CC4)CC3)nc2-c2ccc(OC)cc2)cc1      class 1
6    O=C1C(=O)c2c(nc3ccc(Br)cn23)-c2ccccc21      class 1

(Q) Take the compound COc1cc2c(Nc3ccc(NC(=O)Nc4ccc(Cl)c(C(F)(F)F)c4)c(Cl)c3)ncnc2cc1OCCCN1CCN(C)CC1 and say whether its growth is less than 90%.
(A) class 1

(Q) Next entry: C=C(C)[C@@H]1CC[C@]2(C(N)=O)CC[C@]3(C)[C@H](CC[C@@H]4[C@@]5(C)CCCNC(C)(C)[C@@H]5CC[C@]43C)[C@@H]12
(A) class 0

(Q) Next entry: CCOC(=O)CC[C@H](NC(=O)c1ccc(NC)c2ccccc12)C(=O)OCC
(A) class 0

---

# System: A498 renal
# assay_explanation: NCI-60 one-dose screen, 48 h
# reported_conditions: 10 µM unless noted
Compounds without any hit were thinned out: in the full panel of roughly 83,000, 20% have a hit. Active and inactive are the calls of the source. How the source made its calls: active means growth percent below 10; inactive means the rest.
I would appreciate it if you answered using one of these outcomes: active, inactive

> print(dat)
                                   compound  label.class
1  O=C1NC(c2ccc(F)cc2)N=C2C(c3ccccc3)=NOC12 (centres undefined)     inactive

Here's the next entry for you.
(Q) Dear all, I need the recorded test outcome for Oc1ccc(CNNc2ccnc3c(O)cccc23)c2cccnc12 , thank you.
(A) inactive
